Data origin, for the record: paper PMC2253824

Target: T1, human CDC6, two-hybrid fusion in pEG202 (human, UniProt Q99741 1-560)
T1 construct: CDC6, human; clone from A. Dutta, cloned in the BamH1 and Not1 sites of pEG202; also called HuCDC6; hCDC6; source: yeast two-hybrid fusion
T1 sequence (looked up): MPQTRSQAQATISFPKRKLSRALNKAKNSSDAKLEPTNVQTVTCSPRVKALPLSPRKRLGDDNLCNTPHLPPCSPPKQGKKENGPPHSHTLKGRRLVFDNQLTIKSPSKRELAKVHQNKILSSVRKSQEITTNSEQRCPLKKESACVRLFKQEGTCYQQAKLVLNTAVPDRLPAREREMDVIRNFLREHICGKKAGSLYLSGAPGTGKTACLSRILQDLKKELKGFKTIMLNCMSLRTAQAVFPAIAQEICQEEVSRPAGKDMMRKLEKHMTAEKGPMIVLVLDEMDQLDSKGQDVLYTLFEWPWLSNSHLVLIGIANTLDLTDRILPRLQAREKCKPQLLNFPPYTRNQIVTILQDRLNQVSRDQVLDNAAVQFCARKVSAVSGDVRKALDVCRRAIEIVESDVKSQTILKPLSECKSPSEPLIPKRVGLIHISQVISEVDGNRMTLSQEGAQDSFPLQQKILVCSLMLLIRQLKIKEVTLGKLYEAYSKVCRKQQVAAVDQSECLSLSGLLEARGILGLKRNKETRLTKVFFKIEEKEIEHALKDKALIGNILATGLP
Test: two-hybrid; quantitative liquid beta-galactosidase assays; values as a percentage of the cdc6/TTC4 interaction
Conditions: partners not purified
readoutName: two-hybrid beta-galactosidase, percentage of the cdc6/TTC4 interaction

Query: Value lookup for two-hybrid beta-galactosidase, percentage of the cdc6/TTC4 interaction; key = TTC4-230AC (77EA), two-hybrid fusion in pJG4.5 (natural protein, human, UniProt O95801 1-387, looked up, TTC4, human, with a point mutation reported in melanoma samples, made by site-directed mutagenesis in TTC4 (pJG4.5); also called TTC4 codon 77 E to A; source: yeast two-hybrid fusion) MEQPGQDPTSDDVMDSFLEKFQSQPYRGGFHEDQWEKEFEKVPLFMSRAPSEIDPRENPDLACLQSIIFDEERSPEAQAKTYKDEGNDYFKEKDYKKAVISYTEGLKKKCADPDLNAVLYTNRAAAQYYLGNFRSALNDVTAARKLKPCHLKAIIRGALCHLELKHFAEAVNWCDEGLQIDAKEKKLLEMRAKADKLKRIEQRDVRKANLKEKKERNQNEALLQAIKARNIRLSEAACEDEDSASEGLGELFLDGLSTENPHGARLSLDGQGRLSWPVLFLYPEYAQSDFISAFHEDSRFIDHLMVMFGETPSWDLEQKYCPDNLEVYFEDEDRAELYRVPAKSTLLQVLQHQRYFVKALTPAFLVCVGSSPFCKNFLRGRKVYQIR
Reply: < 5%
